Molecular target: OCT3 (Homo sapiens)
Assay: Stereoselective uptake into OCT3-overexpressing HEK293 cells
Conditions: OCT3; quotient of vmax over Km
The molecules listed here are annotated with their Clint ± SEM.

These solved cases illustrate the format of a correct answer.
COc1cc(C(O)CN)ccc1O (single isomer, unassigned) [Normetanephrine-2, Normetanephrine]
21.6 mL × g Protein^−1 × min^−1
NC[C@H](O)c1ccc(O)cc1 [(R)-Octopamine]
38.8 mL × g Protein^−1 × min^−1

Continue with the next molecule.
Req: Form field: reported Clint ± SEM of NCC(O)c1cccc(O)c1 (single isomer, unassigned) [Norphenylephrine-1, Norphenylephrine]
Resp: 11.0 mL × g Protein^−1 × min^−1

====

The compounds listed here are annotated with their Stereoselectivity Km.
Target: OCT3 (Homo sapiens)
Sequence (O75751 1-556): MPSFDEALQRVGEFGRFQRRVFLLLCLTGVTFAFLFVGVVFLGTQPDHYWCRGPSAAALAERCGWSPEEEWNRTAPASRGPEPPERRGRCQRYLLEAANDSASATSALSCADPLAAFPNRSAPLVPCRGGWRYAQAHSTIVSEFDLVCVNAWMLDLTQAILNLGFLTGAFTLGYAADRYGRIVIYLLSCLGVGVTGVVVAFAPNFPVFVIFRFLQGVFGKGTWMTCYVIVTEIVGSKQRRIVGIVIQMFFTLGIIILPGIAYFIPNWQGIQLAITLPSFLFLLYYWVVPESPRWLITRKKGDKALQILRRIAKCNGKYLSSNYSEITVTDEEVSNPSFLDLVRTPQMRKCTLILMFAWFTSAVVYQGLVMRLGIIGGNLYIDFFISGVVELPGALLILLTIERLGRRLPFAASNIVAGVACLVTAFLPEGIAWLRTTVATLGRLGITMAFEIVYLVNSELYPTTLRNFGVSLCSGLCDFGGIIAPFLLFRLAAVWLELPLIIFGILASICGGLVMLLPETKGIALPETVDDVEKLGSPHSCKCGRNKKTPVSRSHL
Test: Stereoselective uptake into OCT3-overexpressing HEK293 cells;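 also: intracellular accumulation in HEK293 cells measured by chiral HPLC-MS/MS after a 2 min substrate exposure at 37 °C, uptake normalized to total protein (bicinchoninic acid assay)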
Conditions: OCT3; ratio between enantiomers, given as for (R) or for 1 (first-eluting)

NC[C@@H](O)c1ccc(O)c(O)c1 [(S)-Norepinephrine]
1.07-fold for (R)
CNC[C@@H](O)c1ccc(O)cc1 [(S)-Synephrine]
1.11 fold
COc1cc(C(O)CN)ccc1O (single isomer, unassigned) [Normetanephrine-2, Normetanephrine]
1.22 fold

Continue with the next compound.
Req: Form field: reported Stereoselectivity Km of CNC[C@H](O)c1cccc(O)c1 [(R)-Phenylephrine]
Resp: 1.19 fold

====

Target: UniProt:O15244
Sequence (O15244 whole entry S270A): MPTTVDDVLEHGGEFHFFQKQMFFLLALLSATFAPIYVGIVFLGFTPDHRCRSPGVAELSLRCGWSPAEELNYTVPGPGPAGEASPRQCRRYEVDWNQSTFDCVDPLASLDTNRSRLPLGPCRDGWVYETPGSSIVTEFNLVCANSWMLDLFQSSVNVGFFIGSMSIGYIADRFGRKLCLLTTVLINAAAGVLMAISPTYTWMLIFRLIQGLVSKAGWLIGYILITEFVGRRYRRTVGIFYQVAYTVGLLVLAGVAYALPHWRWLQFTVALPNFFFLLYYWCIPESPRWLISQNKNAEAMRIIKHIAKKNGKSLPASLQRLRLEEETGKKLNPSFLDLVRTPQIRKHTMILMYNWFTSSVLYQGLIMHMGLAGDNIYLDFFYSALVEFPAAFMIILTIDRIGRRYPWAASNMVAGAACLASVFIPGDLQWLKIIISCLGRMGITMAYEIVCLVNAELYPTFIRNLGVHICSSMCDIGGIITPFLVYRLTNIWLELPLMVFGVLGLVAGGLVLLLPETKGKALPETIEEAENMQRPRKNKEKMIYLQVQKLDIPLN
Experiment: Stereoselective uptake into OCT2 (wild-type)-overexpressing HEK293 cells
Settings: OCT2; quotient of vmax over Km
property: Clint ± SEM

CNCC(O)c1ccc(O)c(OC)c1 (single isomer, unassigned) [Metanephrine-1, Metanephrine]
20.6 mL × g Protein^−1 × min^−1

Req: Form field: reported Clint ± SEM of NCC(O)c1cccc(O)c1 (single isomer, unassigned) [Norphenylephrine-1, Norphenylephrine]
Resp: 36.4 mL × g Protein^−1 × min^−1

Req: Form field: reported Clint ± SEM of CNCC(O)c1ccccc1 (centres unmarked) [Halostachine-2, Halostachine]
Resp: 13.6 mL × g Protein^−1 × min^−1

Req: Form field: reported Clint ± SEM of CNC[C@H](O)c1ccc(O)cc1 [(R)-Synephrine]
Resp: 24.6 mL × g Protein^−1 × min^−1

Req: Form field: reported Clint ± SEM of NC[C@@H](O)c1ccccc1 [(S)-Bisnorephedrine]
Resp: 10.0 mL × g Protein^−1 × min^−1
